Just for reference, ChEMBL document CHEMBL5724801 is where these values come from.

tested on: U2OS; assay: Multiplex assay against U2OS; type: toxicity, cell-based; details: human, 12 h, 10 µM, compound concentration 10 uM
RECORDED METRIC: Population Normal (%)
Report only the number, with the unit % understood.

Result for COc1ccc(Cl)cc1[C@]1(F)C(=O)Nc2cc(C(F)(F)F)ccc21 [FLINDOKALNER] , tested on U2OS, Population Normal (%): 100

Result for "O=C1c2c(Br)c(Br)c(Br)c(Br)c2C(=O)N1c1ncc[nH]1" , tested on U2OS, Population Normal (%): 100

Result for "CNc1nc(NCc2ncccn2)c2c(-c3ccc4ncccc4c3)c[nH]c2n1" , tested on U2OS, Population Normal (%): 100

Result for "COCCNc1nc2ccc(C#CC3(O)CCCCC3)cc2n1-c1ccnc(N)n1" , tested on U2OS, Population Normal (%): 100

Result for "CN(C)Cc1cccc(NC(=C2C(=O)Nc3cc(C(N)=O)ccc32)c2ccccc2)c1" , tested on U2OS, Population Normal (%): 100
